test system: SCC25 cells; assay: Cell proliferation assay in SCC25 cells, CellTiter-Glo (Example 25); format: cell-based, human; conditions: 1 μM, free uptake, 144 hours
measurement type: cell proliferation (luminescence) % UTC (% UTC)
Number only, in % UTC; omit the unit.

Consider the worked cases shown below.
1) 1198872 (TGTATGTCAGAAGAGT; chemically modified gapmer, further chemistry not given here) [compound 1198872] ... 22
2) 1076453 (GTAATATTGCAATCTG; 3-10-3 cEt gapmer, further chemistry not given here) [compound 1076453] ... 23

Bench note: what cell proliferation (luminescence) % UTC did 1198831 (CACTTTTACATTAGGA; chemically modified gapmer, further chemistry not given here) [compound 1198831] show?
25
